Tgt: HCV NS5B RdRp genotype 1b (Hepatitis C virus genotype 1b)
Construct: The protein was expressed with an 18 amino acid C-terminal truncation to enhance the solubility; made in house; host or cells: E. coli BL21 (DE3), pET21a
Sequence (Q9WMX2 2420-2992): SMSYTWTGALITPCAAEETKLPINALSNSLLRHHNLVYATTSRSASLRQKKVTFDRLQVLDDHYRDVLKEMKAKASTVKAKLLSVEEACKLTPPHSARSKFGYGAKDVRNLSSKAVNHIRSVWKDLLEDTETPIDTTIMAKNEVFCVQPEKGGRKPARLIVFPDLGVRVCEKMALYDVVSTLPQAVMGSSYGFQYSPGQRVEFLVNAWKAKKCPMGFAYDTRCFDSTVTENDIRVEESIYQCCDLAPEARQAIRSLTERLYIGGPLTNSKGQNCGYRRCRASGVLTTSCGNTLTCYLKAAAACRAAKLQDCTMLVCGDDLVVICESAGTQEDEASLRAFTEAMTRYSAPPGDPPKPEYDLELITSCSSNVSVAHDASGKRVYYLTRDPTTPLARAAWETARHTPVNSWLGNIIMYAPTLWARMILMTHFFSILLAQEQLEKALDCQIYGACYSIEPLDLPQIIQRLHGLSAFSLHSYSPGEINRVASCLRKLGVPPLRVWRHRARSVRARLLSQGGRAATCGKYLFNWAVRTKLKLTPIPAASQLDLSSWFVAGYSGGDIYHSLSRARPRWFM
Experimental details: Standard HCV NS5B RdRp enzyme assay
Assay type: biochemical
Condition set: standard method
Examples of compounds with documented IC50 follow.

| Compound | IC50 |
| --- | --- |
| O=C(O)c1ccc2c(C3CCCCC3)c3c4ccccc4cc(C(=O)O)n3c2c1 | > 1000 nM |
| O=C(O)c1ccc2c(C3CCCCC3)c3n(c2c1)CC(C(=O)N1CCCC(O)C1)Cc1ccccc1-3 (centres unmarked) [drawing 119] | 100 to 1000 nM |
| COC(=O)c1ccc2c(C3CCCCC3)c3n(c2c1)CC(C(=O)N1CCN(c2ccncc2)CC1)Cc1ccccc1-3 (centres unmarked) | > 1000 nM |
| CN(C)C(=O)C1Cc2ccccc2-c2c(C3CCCCC3)c3ccc(C(=O)O)cc3n2C1 (centres unmarked) | 100 to 1000 nM |
| CN1C(=O)Cn2c(c(C3CCCCC3)c3ccc(C(=O)O)cc32)-c2ccccc21 [Example 22] | 100 to 1000 nM |

----------
Tgt: HCV NS5B RdRp genotype 1b (Hepatitis C virus genotype 1b)
Construct: The protein was expressed with an 18 amino acid C-terminal truncation to enhance the solubility; made in house; host or cells: E. coli BL21 (DE3), pET21a
Experimental details: Modified HCV NS5B RdRp enzyme assay (with preincubation)
Type: biochemical
Condition set: modified method (with preincubation)
pIC50: −log10 of the molar value.
Examples of compounds with documented pIC50 follow.
Measured quantity: pIC50

| Compound | Tgt | Value observed |
| --- | --- | --- |
| CCOC(=O)N1CCn2c(c(C3CCCCC3)c3ccc(C(=O)NS(=O)(=O)C4CC4)cc32)-c2ccccc21 | HCV NS5B RdRp genotype 1b (Hepatitis C virus genotype 1b) | 6.00 to 7.70 |
| O=C(NS(=O)(=O)c1ccccc1)c1ccc2c(C3CCCCC3)c3n(c2c1)CC(C(=O)N1CCOCC1)Cc1ccccc1-3 (stereo not drawn) | HCV NS5B RdRp genotype 1b (Hepatitis C virus genotype 1b) | 6.00 to 7.70 |
| COC(=O)c1ccc2c(C3CCCCC3)c3n(c2c1)CC(C(=O)N1CCOCC1)=Cc1ccc(Cl)cc1-3 | HCV NS5B RdRp genotype 1b (Hepatitis C virus genotype 1b) | < 6.00 |
| CN(C)CCNC(=O)C1=Cc2ccccc2-c2c(C3CCCCC3)c3ccc(C(=O)NC4(C(=O)Nc5ccc6c(c5)cc(C(=O)O)n6C)CCCC4)cc3n2C1 | HCV NS5B RdRp genotype 1b (Hepatitis C virus genotype 1b) | 6.00 to 7.70 |
| O=C(O)c1ccc2c(C3CCCCC3)c3n(c2c1)CCN(C(=O)NC1CCCC1)c1ccccc1-3 | HCV NS5B RdRp genotype 1b (Hepatitis C virus genotype 1b) | 6.00 to 7.70 |
| COC(=O)c1ccc2c(C3CCCCC3)c3n(c2c1)CCNc1ccccc1-3 | HCV NS5B RdRp genotype 1b (Hepatitis C virus genotype 1b) | < 6.00 |
